Molecular target: T1, human TNFR1 on MRC-5 cells (human, UniProt P19438 30-455)
T1 sequence (looked up): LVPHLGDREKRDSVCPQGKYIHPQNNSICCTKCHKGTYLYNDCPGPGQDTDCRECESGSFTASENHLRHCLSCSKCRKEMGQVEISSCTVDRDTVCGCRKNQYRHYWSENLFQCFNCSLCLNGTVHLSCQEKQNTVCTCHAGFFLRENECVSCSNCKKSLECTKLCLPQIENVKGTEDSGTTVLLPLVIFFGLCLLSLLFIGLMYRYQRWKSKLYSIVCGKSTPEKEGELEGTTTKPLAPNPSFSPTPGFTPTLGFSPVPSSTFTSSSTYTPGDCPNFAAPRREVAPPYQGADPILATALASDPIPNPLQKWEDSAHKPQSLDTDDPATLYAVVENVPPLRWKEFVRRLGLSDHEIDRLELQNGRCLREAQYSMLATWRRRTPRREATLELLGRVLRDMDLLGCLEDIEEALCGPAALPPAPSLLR
Assay: cell-based or functional assay
Field: label. Allowed values: T (MRC-5 ND50 (TNFα-mediated IL-8 release) < 100 nM) or F (MRC-5 ND50 (TNFα-mediated IL-8 release) >= 100 nM).

Solved entries (count: 10):
DOM1h-574 (other, VH dAb; also called parental dAb) VH: EVQLLESGGGLVQPGGSLRLSCAASGFTFVKYSMGWVRQAPGKGLEWVSQISNTGGHTYYADSVKGRFTISRDNSKNTLYLQMNSLRAEDTAVYYCAKYTGHWEPFDYWGQGTLVTVSS
F
DOM1h-574-13 (other, VH dAb) VH: EVQLLESGGGLVQPGGSLRLSCAASGFTFVKYSMGWVRQAPGKGLEWVSQISNTGDRTYYADSVKGRFTISRDNSKNTLYLQMNSLRAEDTAVYYCAKYTGRWEPFDYWGQGTLVTVSS
F
DOM1h-574-8 (other, VH dAb) VH: EVQLLESGGGLVQPGGSLRLSCAASGFTFVKYSMGWVRQAPGKGPEWVSQISNTGGHTYYADSVKGRFTISRDNSKNTLYLQMNSLRAEDTAVYYCAIYTGRWEPFDYWGQGTLVTVSS
T
DOM1h-574-17 (other, VH dAb) VH: EVQLLESGGGLVQPGGSLRLSCAASGFTFVKYSMGWVRQAPGKGPEWVSQISNTGDHTYYADSVKGRFTISRDNSKNTLYLQMNSLRAEDTAVYYCAIYTGRWEPFDYWGQGTLVTVSS
T
DOM1h-574-12 (other, VH dAb) VH: EVQLLESGGGLVQPGGSLRLSCAASGFTFVKYSMGWVRQAPGKGLEWVSQISNTGDHTYYADSVKGRFTISRDNSKNTLYLQMNSLRAEDTAVYYCAKYTGRWEPFDYWGQGTLVTVSS
F
DOM1h-574-11 (other, VH dAb) VH: EVQLLESGGGLVQPGGSLRLSCAASGFTFVKYSMGWVRQAPGKGLEWVSQISNTGGHTYYADSVKGRFTISRDNSKNTLYLQMNSLRAEDTAVYYCAKYTGRWEPFDHWGQGTLVTVSS
F
DOM1h-574-18 (other, VH dAb) VH: EVQLLESGGGLVQPGGSLRLSCAASGFTFGKYSMGWVRQAPGKDLEWVSQISNTGDRTYYADSVKGRFTISRDNSKNTLYLQMNSLRAEDTAVYYCAIYTGRWEPFDYWGQGTLVTVSS
T
DOM1h-574-7 (other, VH dAb) VH: EVQLLESGGGLVQPGGSLRLSCAASGFTFVKYSMGWVRQAPGKGLEWVSQISNTGGHTYYADSVKGRFTISRDNSKNTLYLQMNSLRAEDTAVYYCAIYTGRWEPFDYWGQGTLVTVSS
F
DOM1h-574-16 (other, VH dAb; also called DOM1h-57-16 [sic]; the DOM0100 dAb) VH: EVQLLESGGGLVQPGGSLRLSCAASGFTFVKYSMGWVRQAPGKGPEWVSQISNTGDRTYYADSVKGRFTISRDNSKNTLYLQMNSLRAEDTAVYYCAIYTGRWEPFDYWGQGTLVTVSS
T
DOM1h-574-15 (other, VH dAb) VH: EVQLLESGGGLVQPGGSLRLSCAASGFTFVKYSMGWVRQAPGKGLEWVSQISNTGDHTYYADSVKGRFTISRDNSKNTLYLQMNSLRAEDTAVYYCAIYTGRWEPFDYWGQGTLVTVSS
F

## Task Consider the binder DOM1h-574-19 (other) VH: EVQLLESGGGLVQPGGSLRLSCAASGFTFGKYSMGWVRQAPGKDLEWVSQISNTGDHTYYADSVKGRFTISRDNSKNTLYLQMNSLRAEDTAVYYCAIYTGRWEPFDYWGQGTLVTVSS . Is its MRC-5 ND50 (TNFα-mediated IL-8 release) strictly less than 100 nM?
## Result F
